Data provenance is the Immune Epitope Database (IEDB).

# pKd values compiled below
ASSAY SYSTEM: HLA-A*03:01
TEST SUMMARY: IEDB peptide-MHC binding, purified MHC/direct/fluorescence; filed as Kd, often an IC50 or EC50 that approximates it; bounds were set here for any values at or beyond the usual limits of such assays
STUDY CONDITIONS: source organism: Mycobacterium tuberculosis
pKd: −log10 of the molar value.

[[record]]
residue_string = "RPPMVTSGL"
assay_system = "HLA-A*03:01"
property_label = "pKd"
reported_measurement = "≤ 4.70"


Now consider a different sequence.
stdin: Form field: reported pKd of MPRLSRNAA
stdout: ≤ 4.70

----------
ASSAY SYSTEM: HLA-A*02:03
TEST SUMMARY: IEDB peptide-MHC binding, purified MHC/competitive/fluorescence; filed as Kd, often an IC50 or EC50 that approximates it; bounds were set here for any values at or beyond the usual limits of such assays
STUDY CONDITIONS: source organism: Encephalitozoon cuniculi GB-M1
PROPERTY LABEL: pKd
A value of pKd is the negative decimal logarithm of a concentration given in moles per litre.

stdin: Form field: reported pKd of ALEEGRKYV
stdout: 7.54

----------
ASSAY SYSTEM: HLA-A*02:01
TEST SUMMARY: IEDB peptide-MHC binding, purified MHC/direct/fluorescence; filed as Kd, often an IC50 or EC50 that approximates it; bounds were set here for any values at or beyond the usual limits of such assays
STUDY CONDITIONS: source organism: Giardia lamblia ATCC 50803
PROPERTY LABEL: Kd

Here is how some sequences turned out for Kd.
[[record]]
residue_string = "GMNPYHLAA"
property_label = "Kd"
reported_measurement = "4.38 µM"

[[record]]
residue_string = "EIRHRSGIQ"
property_label = "Kd"
reported_measurement = "≥ 20 µM"

[[record]]
residue_string = "WSDLNTTDF"
property_label = "Kd"
reported_measurement = "≥ 20 µM"


Now consider a different sequence.
stdin: API: value(readout=Kd, system=HLA-A*02:01) for record IARLVYKAR
stdout: ≥ 20 µM

----------
ASSAY SYSTEM: HLA-A*03:01
TEST SUMMARY: IEDB peptide-MHC binding, purified MHC/competitive/fluorescence; bounds were set here for any values at or beyond the usual limits of such assays
STUDY CONDITIONS: source organism: Sudan ebolavirus
PROPERTY LABEL: pIC50
A value of pIC50 is the negative decimal logarithm of a concentration given in moles per litre.

[[record]]
residue_string = "SLLQLPRDK"
assay_system = "HLA-A*03:01"
reported_measurement = 5.42


Now consider a different sequence.
stdin: Form field: reported pIC50 of ILFQKAFSM
stdout: 4.80

----------
ASSAY SYSTEM: HLA-A*33:01
TEST SUMMARY: IEDB peptide-MHC binding, purified MHC/competitive/radioactivity; filed as Kd, often an IC50 or EC50 that approximates it; bounds were set here for any values at or beyond the usual limits of such assays
STUDY CONDITIONS: source organism: Dengue virus 1 Singapore/S275/1990
PROPERTY LABEL: Kd (µM)
I only need the number, in µM, no unit after it.

stdin: Form field: reported Kd of ISNMLNIMNR
stdout: 0.157

----------
# pKd values compiled below
ASSAY SYSTEM: HLA-B*51:01
TEST SUMMARY: IEDB peptide-MHC binding, purified MHC/competitive/radioactivity; filed as Kd, often an IC50 or EC50 that approximates it; bounds were set here for any values at or beyond the usual limits of such assays
STUDY CONDITIONS: source organism: Vaccinia virus WR
A value of pKd is the negative decimal logarithm of a concentration given in moles per litre.

Here is how some sequences turned out for pKd.
[[record]]
residue_string = "VILFIMFMLI"
property_label = "pKd"
reported_measurement = 5.12

[[record]]
residue_string = "IPFIAYFVLM"
property_label = "pKd"
reported_measurement = 5.65

[[record]]
residue_string = "YIIRVTTEL"
property_label = "pKd"
reported_measurement = 4.84


Now consider a different sequence.
stdin: API: value(readout=pKd, system=HLA-B*51:01) for record LPHLCLDYKV
stdout: 6.44
